- TARGET OR SYSTEM: recombinant human FLAP protein (Homo sapiens)
- Construct: made in house; host or cells: Sf9 insect cells (100,000×g membrane pellet used)
- Sequence (P20292 whole entry): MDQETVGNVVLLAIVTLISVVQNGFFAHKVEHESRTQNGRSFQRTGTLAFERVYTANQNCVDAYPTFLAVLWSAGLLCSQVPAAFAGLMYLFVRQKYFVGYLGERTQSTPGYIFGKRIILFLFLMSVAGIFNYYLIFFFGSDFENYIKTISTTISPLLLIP
- ASSAY NAME: FLAP binding assay (SPA, displacement of [125I]L-691,831)
- DETAILS: membranes of sf9 cells expressing recombinant human FLAP; [125I]L-691,831 probe; read-out: FLAP binding IC50
pIC50: −log10 of the molar value.
Tag: Satisfied if measured pIC50 is not below 8, Not satisfied if it is.

For this molecule, is measured pIC50 8 or higher? Cn1cnc(-c2nc(C(C)(c3ccc(-c4cnc(N)nc4)cc3)C3CC3)no2)c1 (stereo not drawn) [Example 28]
Not satisfied

For this molecule, is measured pIC50 8 or higher? COCCn1cc(-c2nc(C(C)(C)c3ccc(-c4cnc(N)nc4)cc3)no2)cn1 [Example 76]
Not satisfied

For this molecule, is measured pIC50 8 or higher? CN(C)C(=O)Cn1cc(-c2nc(C(C)(c3ccc(-c4cnc(NC5CC5)nc4)cc3)C3CC3)no2)cn1 (stereo not drawn) [Example 250]
Not satisfied

For this molecule, is measured pIC50 8 or higher? CC(C)C(C)(c1ccc(-c2cnc(N)nc2)cc1)c1noc(C(=O)N2CCNCC2)n1 (stereo not drawn) [Example 84]
Not satisfied

For this molecule, is measured pIC50 8 or higher? CC(C)(O)CNc1cnc(-c2nc(C(C)(c3ccc(-c4cnc(N)nc4)cc3)C3CC3)no2)cn1 (stereo not drawn) [Example 44]
Satisfied
